- Tested on: CAKI-1 renal
- procedureDetails: NCI tumour cell line growth inhibition, 48 h; in the data active = GI50 below about 0.43 µM; inactive = the rest
Returns: one label drawn from active, inactive

Below, 10 compounds whose answers are already recorded.
# compound, cat
rows = [
    ("O=Nc1c(-c2cccc([N+](=O)[O-])c2)nc2ncccn12", "inactive"),
    ("Cn1c(=O)c(Cc2ccc(F)cc2F)cc2cnc(NC3CCOCC3)nc21", "inactive"),
    ("COc1cc2c(cc1-c1c(C)noc1C)ncc1nc(C3CCCCC3)n(C3CCC(OC(F)F)CC3)c12 (stereo not given)", "inactive"),
    ("Cn1c2ccccc2c2c3c(c4c5ccccc5n(CCCCCC#N)c4c21)C(=O)N(O)C3=O", "inactive"),
    ("COc1ccc(C(=O)Nc2cccc(C3CC(=O)c4c(cc(OC)c(OC)c4OC)O3)c2)cc1 (stereo not given)", "inactive"),
    ("O=C1c2cc3c(cc2-c2c1c1ccc([N+](=O)[O-])cc1c(=O)n2CCCCl)OCO3", "active"),
    ("Cc1ccc(Cl)cc1Nc1nc(C(F)(F)F)ccc1C(=O)Oc1ccc(Cl)cc1", "inactive"),
    ("CCCNc1nc(-c2ccc(OC)cc2)nc2ccccc12", "inactive"),
    ("CC(C)[C@]12O[C@H]1[C@@H]1O[C@]13[C@]1(O[C@H]1C[C@H]1c4c(C(=O)c5ccccc5)oc(OC(=O)c5ccccc5)c4CC[C@@]13C)[C@@H]2O", "active"),
    ("CCOc1ccc2c(c1)/C(=C\\C=C\\C1CC(C)C3CC(OCC)CCC3N1CC)CC(C)N2CC (stereo not given)", "inactive"),
]

// query # fetch the recorded call for COC(=O)c1ccc2c(c1)nc(-c1ccc(Cl)cc1)n2-c1cc(C(C)(C)C)[nH]n1 here
// result inactive

// query Repeat with CC1SC(c2cccs2)N(NC(=O)C(O)c2ccccc2)C1=O (stereo not given)
// result inactive

// query Repeat with NC(=O)NC(=O)CI
// result inactive

// query Repeat with O=[N+]([O-])c1ccc2[nH]cc(-c3c4ccccc4cc4[nH]c5ccc([N+](=O)[O-])cc5c34)c2c1
// result inactive

// query Repeat with CN(C)/[N+]([O-])=N/Oc1cc(Nc2ccc(C(=O)O)cc2)c([N+](=O)[O-])cc1[N+](=O)[O-]
// result inactive

* * *

- Test system: HCT-116 colon
- procedureDetails: NCI tumour cell line growth inhibition, 48 h
observable: TGI (µM)
Write down the numeric answer in µM and omit the unit.

Check out these entries, answers already filled in.
# structureString, targetDesc, TGI / µM
measured = [
    ("O=C(Nc1ccccc1Cl)c1ccc(NC2=C(Cl)C(=O)N(Cc3ccccc3)C2=O)cc1", "HCT-116 colon", 47.5),
    ("CCCNc1nc(-c2ccc(OC)cc2)nc2ccccc12", "HCT-116 colon", 27.7),
    ("COc1ccc2c(CNCCCCO)cc3cc4c(cc3c2c1)OCO4", "HCT-116 colon", 9.5),
    ("COc1ccccc1NC(=S)N/N=C(/c1ccccc1)c1ccccn1", "HCT-116 colon", 14.7),
]

Consider now this further compound.
// query Query: TGI; subject: CC(C)C[C@H](NC(=O)[C@@H](Cc1cccc2ccccc12)NC(=O)N1CCOCC1)B(O)O
// result 5.94

* * *

- Tested on: IGROV1 ovarian
- procedureDetails: NCI tumour cell line growth inhibition, 48 h
observable: TGI

Check out these entries, answers already filled in.
# compound, TGI
data = [
    ("C[N+](C)(C)CCCCCc1c2nc(c(CCCCC[N+](C)(C)C)c3ccc([nH]3)c(CCCCC[N+](C)(C)C)c3ccc([nH]3)c(CCCCC[N+](C)(C)C)c3nc1C=C3)C=C2", "> 100 µM"),
    ("CCOC(=O)/C(O)=C(\\C=N\\C(=S)Nc1ccc(Cl)c(Cl)c1)C(=O)OCC", "> 100 µM"),
    ("COc1ccccc1Nc1nc(-c2cc3cccc(C(F)(F)F)c3oc2=O)cs1", "> 53 µM"),
    ("c1ccc(COc2nc3ccc(C45CC6CC(CC(C6)C4)C5)cc3[nH]2)cc1", "> 100 µM"),
    ("N#Cc1c2ccccc2c2nnc3cc(Cl)c(Cl)cc3n12", "> 100 µM"),
]

// query Query: TGI; subject: COc1ccccc1NC(=S)N/N=C(/c1ccccc1)c1ccccn1
// result 17.6 µM

// query Repeat with COc1ccc(/C=C(/C(=O)N2CCNCC2)c2cc(OC)c(OC)c(OC)c2)cc1O
// result > 100 µM

// query Repeat with CC1CCN(c2nnc(Cl)cc2C(=O)c2ccccc2)CC1
// result > 100 µM

// query Repeat with S=C1c2cc(Cl)ccc2NC(=NC2CCCC2)C2CSCN12 (centres undefined)
// result > 100 µM

// query Repeat with O=C(OCCOCCOC(=O)c1c[nH]cc1-c1ccccc1)c1c[nH]cc1-c1ccccc1
// result 42.5 µM

// query Repeat with CCOC(=O)C1(C(=O)OCC)C[C@H]2CON=C2[C@@H]1c1ccc(C(F)(F)F)cc1
// result 28.9 µM
